System: rodent lifetime carcinogenesis bioassay, tumor incidence TD50
Experiment: carcinogenic potency in animals, long-term in vivo studies, CPDB compilation (AID 1745844)
Conditions: rat; strain Fischer 344; females; in feed; site: brain; lesion: glioma, NOS; dosed 78 weeks; study length 105 weeks

| input smiles | system tested | TD50 |
| --- | --- | --- |
| c1ccc2n[nH]nc2c1 | rodent lifetime carcinogenesis bioassay, tumor incidence TD50 | 20300 mg/kg/day |

---

Test system: rodent lifetime carcinogenesis bioassay, tumor incidence TD50
Assay: carcinogenic potency in animals, long-term in vivo studies, CPDB compilation (AID 1745844)
Conditions: rat; strain Wistar; males; in feed; site: small intestine; lesion: several types; types named in the paper; dosed 52 weeks; study length 52 weeks
assay metric: TD50 (mg/kg/day)

| compound | value reported |
| --- | --- |
| O=P(O)(OCC(Br)CBr)OCC(Br)CBr (stereo unspecified) | 38.1 |

---

System: rodent lifetime carcinogenesis bioassay, tumor incidence TD50
Assay: carcinogenic potency in animals, long-term in vivo studies, CPDB compilation (AID 1745844)
Settings: rat; strain ACI; males; in drinking water; site: liver; lesion: hemangioendothelial sarcoma; dosed 58 weeks; study length 58 weeks

| input smiles | TD50 |
| --- | --- |
| C[C@@H]1C[C@]2(O[C@@H]2C)C(=O)O[C@@H]2CCN(C)C/C=C(/COC(=O)[C@]1(C)O)C2=O | 4.78 mg/kg/day |

---

Test system: rodent lifetime carcinogenesis bioassay, tumor incidence TD50
Assay: carcinogenic potency in animals, long-term in vivo studies, CPDB compilation (AID 1745844)
Settings: rat; strain F344/DuCrj; females; in feed; site: central nervous system; lesion: several types; types named in the paper; dosed 104 weeks; study length 113 weeks
assay metric: TD50 (mg/kg/day)

| input smiles | system tested | assay metric | measure unit | value reported |
| --- | --- | --- | --- | --- |
| S=c1nc[nH]c2nc[nH]c12 | rodent lifetime carcinogenesis bioassay, tumor incidence TD50 | TD50 | mg/kg/day | 34.1 |

---

Test system: rodent lifetime carcinogenesis bioassay, tumor incidence TD50
Test: carcinogenic potency in animals, long-term in vivo studies, CPDB compilation (AID 1745844)
Settings: rat; strain Fischer 344; males; in drinking water; site: spinal cord; lesion: astrocytoma; dosed 107 weeks; study length 107 weeks
assay metric: TD50 (mg/kg/day)

| input smiles | assay metric | value reported |
| --- | --- | --- |
| C=CC(N)=O | TD50 | 82.5 |

---

Tested on: rodent lifetime carcinogenesis bioassay, tumor incidence TD50
Assay: carcinogenic potency in animals, long-term in vivo studies, CPDB compilation (AID 1745844)
Details: mouse; strain B6C3F1; males; in feed; site: any site (literature study); lesion: several types; types named in the paper; dosed 90 weeks; study length 92 weeks

| input smiles | TD50 |
| --- | --- |
| Clc1ccc2c(c1)Oc1ccc(Cl)cc1O2 | 2910 mg/kg/day |

---

Tested on: rodent lifetime carcinogenesis bioassay, tumor incidence TD50
Assay: carcinogenic potency in animals, long-term in vivo studies, CPDB compilation (AID 1745844)
Conditions: mouse; strain B6C3F1; females; by gavage; site: lung; lesion: alveolar/bronchiolar adenoma + alveolar/bronchiolar carcinoma; dosed 104 weeks; study length 104 weeks
Property: log10 TD50; scope: individual compounds
assay metric: log10 TD50 (log10 of the value in mg/kg/day)

| input smiles | log10 TD50 |
| --- | --- |
| Cc1cn([C@H]2C[C@H](N=[N+]=[N-])[C@@H](CO)O2)c(=O)[nH]c1=O | 2.71 |
| CC1(C)S[C@@H]2[C@H](NC(=O)COc3ccccc3)C(=O)N2[C@H]1C(=O)O | 4.22 |
| O=P(OCCCl)(OCCCl)OCCCl | 3.64 |
| Oc1cccc(O)c1 | 3.13 |
| C=C(C)C#N | 2.25 |
| C=C(Cl)Cl | 1.82 |
